Test: Oral bioavailability in Balb/c mouse at 2 mg/kg
Type: ADME, organism-based
Details: in vivo
endpoint-label: bioavailability (%)
Report the figure in % without appending any unit label.

Ask: May I ask what bioavailability has been recorded for CNC(=O)[C@]1(C)CC[C@@H](Nc2ncc3c(Br)nn(-c4ccc(-c5nnc(C)s5)cc4)c3n2)C1 ?
Result: 50

====

Test: Oral bioavailability in Sprague-Dawley rat at 2 mg/kg
Format: ADME, organism-based
Conditions: in vivo
Please note: True applies when bioavailability is 40% or greater, and False applies otherwise.

CNC(=O)[C@]1(C)CC[C@@H](Nc2ncc3c(Br)nn(-c4ccc(-c5nnc(C)s5)c(CCS(C)(=O)=O)c4)c3n2)C1; False

Ask: Decide: is the reported value of bioavailability for CNC(=O)[C@]1(C)CC[C@@H](Nc2ncc3c(Br)nn(-c4ccc(-c5nnc(C)s5)c(CCC#N)c4)c3n2)C1 equal to or greater than 40%?
Result: True

Ask: Determine whether this compound has bioavailability no lower than 40%: CNC(=O)[C@]1(C)CC[C@@H](Nc2ncc3c(Br)nn(-c4ccc(-c5nnc(C)s5)c(CCO)c4)c3n2)C1
Result: False

Ask: Could you tell me if the measured bioavailability of CNC(=O)[C@]1(C)CC[C@@H](Nc2ncc3c(Br)nn(-c4ccc(-c5nnc(C)s5)cc4)c3n2)C1 reaches 40% or more?
Result: True

====

Target: Mitogen-activated protein kinase 10 (Homo sapiens)
Test: Inhibition of JNK3 (unknown origin)
endpoint-label: IC50 (nM)
Return type: number; implicit unit nM.

Ask: IC50 lookup needed for CNC(=O)[C@]1(C)CC[C@@H](Nc2ncc3c(Br)nn(-c4ccc(-c5nnc(C)s5)cc4)c3n2)C1 , thanks.
Result: 101

====

Biological target: Eukaryotic translation initiation factor 2-alpha kinase 1 (Homo sapiens)
Sequence (Q9BQI3 whole entry): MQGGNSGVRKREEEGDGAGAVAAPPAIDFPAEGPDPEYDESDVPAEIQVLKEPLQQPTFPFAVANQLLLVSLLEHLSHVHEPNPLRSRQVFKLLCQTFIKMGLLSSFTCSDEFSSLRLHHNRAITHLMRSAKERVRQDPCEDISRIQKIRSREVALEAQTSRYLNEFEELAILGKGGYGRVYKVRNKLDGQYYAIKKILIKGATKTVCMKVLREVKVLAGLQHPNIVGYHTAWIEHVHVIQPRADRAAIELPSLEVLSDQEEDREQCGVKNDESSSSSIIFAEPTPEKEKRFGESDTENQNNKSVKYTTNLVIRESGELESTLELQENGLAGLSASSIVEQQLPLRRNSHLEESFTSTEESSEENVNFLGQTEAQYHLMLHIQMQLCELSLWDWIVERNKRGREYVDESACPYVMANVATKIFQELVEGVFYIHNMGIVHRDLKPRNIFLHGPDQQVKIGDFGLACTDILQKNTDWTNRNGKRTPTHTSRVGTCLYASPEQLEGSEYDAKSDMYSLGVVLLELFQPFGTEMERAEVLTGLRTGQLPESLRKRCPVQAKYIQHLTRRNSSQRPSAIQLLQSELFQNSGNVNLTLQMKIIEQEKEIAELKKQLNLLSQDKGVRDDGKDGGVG
Assay: Inhibition of HRI (unknown origin)
pIC50: −log10 of the molar value.
endpoint-label: pIC50

Ask: Please report the recorded pIC50 for CNC(=O)[C@]1(C)CC[C@@H](Nc2ncc3c(Br)nn(-c4ccc(-c5nnc(C)s5)cc4)c3n2)C1 .
Result: < 6.00

====

Target: Interferon-induced, double-stranded RNA-activated protein kinase (Homo sapiens, UniProt P19525)
Experiment: Inhibition of PKR (unknown origin)
endpoint-label: IC50

Ask: Looking for the measured IC50 of CNC(=O)[C@]1(C)CC[C@@H](Nc2ncc3c(Br)nn(-c4ccc(-c5nnc(C)s5)cc4)c3n2)C1 , can you help?
Result: > 50 µM

====

Target: Transcription initiation factor TFIID subunit 1-like (Homo sapiens)
Sequence (Q8IZX4 whole entry): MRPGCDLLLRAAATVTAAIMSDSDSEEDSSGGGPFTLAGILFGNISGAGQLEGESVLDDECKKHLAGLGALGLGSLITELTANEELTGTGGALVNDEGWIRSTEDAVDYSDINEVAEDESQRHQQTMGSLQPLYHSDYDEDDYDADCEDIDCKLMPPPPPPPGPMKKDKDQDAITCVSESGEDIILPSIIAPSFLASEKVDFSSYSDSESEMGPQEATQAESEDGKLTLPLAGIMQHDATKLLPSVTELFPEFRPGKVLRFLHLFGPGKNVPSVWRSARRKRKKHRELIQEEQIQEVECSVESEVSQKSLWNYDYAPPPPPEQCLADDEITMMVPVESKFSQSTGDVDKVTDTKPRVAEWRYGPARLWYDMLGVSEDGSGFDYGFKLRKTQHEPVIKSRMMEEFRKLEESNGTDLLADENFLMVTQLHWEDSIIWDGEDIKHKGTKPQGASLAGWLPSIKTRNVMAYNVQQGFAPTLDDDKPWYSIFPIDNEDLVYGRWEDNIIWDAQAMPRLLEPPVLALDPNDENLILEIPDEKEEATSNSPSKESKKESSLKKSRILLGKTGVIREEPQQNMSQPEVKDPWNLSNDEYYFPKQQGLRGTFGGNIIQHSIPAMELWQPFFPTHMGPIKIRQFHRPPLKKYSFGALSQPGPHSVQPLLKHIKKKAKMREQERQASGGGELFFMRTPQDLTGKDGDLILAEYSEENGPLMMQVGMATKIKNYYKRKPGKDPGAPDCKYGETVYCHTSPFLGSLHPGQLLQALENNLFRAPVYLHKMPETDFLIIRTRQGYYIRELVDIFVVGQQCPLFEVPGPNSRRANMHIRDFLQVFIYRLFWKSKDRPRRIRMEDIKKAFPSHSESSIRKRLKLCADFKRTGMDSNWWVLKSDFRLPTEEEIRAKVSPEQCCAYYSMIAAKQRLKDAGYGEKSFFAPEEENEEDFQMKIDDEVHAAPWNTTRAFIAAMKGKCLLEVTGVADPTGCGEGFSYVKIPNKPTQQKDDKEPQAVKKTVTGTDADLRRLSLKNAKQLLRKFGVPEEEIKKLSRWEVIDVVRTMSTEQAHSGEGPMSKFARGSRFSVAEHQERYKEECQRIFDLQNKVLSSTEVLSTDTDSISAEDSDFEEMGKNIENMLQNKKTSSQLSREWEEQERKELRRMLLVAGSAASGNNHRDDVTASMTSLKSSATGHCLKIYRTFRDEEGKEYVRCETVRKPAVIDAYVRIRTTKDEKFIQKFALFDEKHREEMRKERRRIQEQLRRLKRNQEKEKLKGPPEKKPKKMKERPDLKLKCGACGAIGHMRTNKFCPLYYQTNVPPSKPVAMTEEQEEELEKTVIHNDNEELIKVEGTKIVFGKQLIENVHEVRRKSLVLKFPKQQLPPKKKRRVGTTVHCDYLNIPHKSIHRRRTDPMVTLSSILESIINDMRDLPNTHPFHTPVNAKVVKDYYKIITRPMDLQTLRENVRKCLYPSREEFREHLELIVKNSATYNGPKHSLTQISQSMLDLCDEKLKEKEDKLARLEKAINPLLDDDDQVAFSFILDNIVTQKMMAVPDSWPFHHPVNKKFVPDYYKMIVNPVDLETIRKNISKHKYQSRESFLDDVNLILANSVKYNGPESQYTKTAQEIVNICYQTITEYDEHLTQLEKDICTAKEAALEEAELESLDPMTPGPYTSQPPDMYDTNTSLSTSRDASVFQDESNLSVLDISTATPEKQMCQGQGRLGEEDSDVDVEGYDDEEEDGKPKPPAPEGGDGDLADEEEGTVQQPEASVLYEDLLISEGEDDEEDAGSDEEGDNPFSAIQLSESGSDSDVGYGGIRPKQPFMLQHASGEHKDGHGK
Assay: Inhibition of TAF1L (unknown origin)
endpoint-label: IC50 (nM)
Quick note: give the figure in nM, leave out the unit.

Ask: Name the recorded IC50 for CNC(=O)[C@]1(C)CC[C@@H](Nc2ncc3c(Br)nn(-c4ccc(-c5nnc(C)s5)cc4)c3n2)C1 .
Result: 124

====

Molecular target: CDK6/cyclin D3 (Homo sapiens, UniProt Q00534)
Sequence (P30281 whole entry): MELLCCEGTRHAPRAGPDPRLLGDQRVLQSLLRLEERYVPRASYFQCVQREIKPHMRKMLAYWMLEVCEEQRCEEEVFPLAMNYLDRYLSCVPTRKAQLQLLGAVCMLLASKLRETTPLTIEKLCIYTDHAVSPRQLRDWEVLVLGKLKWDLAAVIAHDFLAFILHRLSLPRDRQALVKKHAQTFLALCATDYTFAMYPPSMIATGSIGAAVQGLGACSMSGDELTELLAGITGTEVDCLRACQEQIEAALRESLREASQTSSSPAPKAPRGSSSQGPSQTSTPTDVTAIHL
Sequence (Q00534 whole entry): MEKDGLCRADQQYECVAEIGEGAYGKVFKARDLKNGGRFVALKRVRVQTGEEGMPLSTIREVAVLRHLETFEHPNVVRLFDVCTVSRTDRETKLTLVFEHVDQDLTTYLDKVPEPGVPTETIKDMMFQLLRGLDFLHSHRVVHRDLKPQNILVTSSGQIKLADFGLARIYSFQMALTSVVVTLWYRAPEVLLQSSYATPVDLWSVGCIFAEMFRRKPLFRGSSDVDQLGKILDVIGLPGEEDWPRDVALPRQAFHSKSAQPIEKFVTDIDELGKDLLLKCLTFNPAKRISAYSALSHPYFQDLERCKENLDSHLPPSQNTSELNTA
Assay: Inhibition of CDK6/Cyclin-D3 (unknown origin)
endpoint-label: pIC50
Quick note: pIC50 values are minus log10 of concentrations in mol/L.

Ask: Fill blank: measured pIC50 of the molecule CNC(=O)[C@]1(C)CC[C@@H](Nc2ncc3c(Br)nn(-c4ccc(-c5nnc(C)s5)cc4)c3n2)C1 is ____.
Result: 6.72

====

Target: eIF-2-alpha kinase GCN2 (Homo sapiens, UniProt Q9P2K8)
Sequence (Q9P2K8 whole entry): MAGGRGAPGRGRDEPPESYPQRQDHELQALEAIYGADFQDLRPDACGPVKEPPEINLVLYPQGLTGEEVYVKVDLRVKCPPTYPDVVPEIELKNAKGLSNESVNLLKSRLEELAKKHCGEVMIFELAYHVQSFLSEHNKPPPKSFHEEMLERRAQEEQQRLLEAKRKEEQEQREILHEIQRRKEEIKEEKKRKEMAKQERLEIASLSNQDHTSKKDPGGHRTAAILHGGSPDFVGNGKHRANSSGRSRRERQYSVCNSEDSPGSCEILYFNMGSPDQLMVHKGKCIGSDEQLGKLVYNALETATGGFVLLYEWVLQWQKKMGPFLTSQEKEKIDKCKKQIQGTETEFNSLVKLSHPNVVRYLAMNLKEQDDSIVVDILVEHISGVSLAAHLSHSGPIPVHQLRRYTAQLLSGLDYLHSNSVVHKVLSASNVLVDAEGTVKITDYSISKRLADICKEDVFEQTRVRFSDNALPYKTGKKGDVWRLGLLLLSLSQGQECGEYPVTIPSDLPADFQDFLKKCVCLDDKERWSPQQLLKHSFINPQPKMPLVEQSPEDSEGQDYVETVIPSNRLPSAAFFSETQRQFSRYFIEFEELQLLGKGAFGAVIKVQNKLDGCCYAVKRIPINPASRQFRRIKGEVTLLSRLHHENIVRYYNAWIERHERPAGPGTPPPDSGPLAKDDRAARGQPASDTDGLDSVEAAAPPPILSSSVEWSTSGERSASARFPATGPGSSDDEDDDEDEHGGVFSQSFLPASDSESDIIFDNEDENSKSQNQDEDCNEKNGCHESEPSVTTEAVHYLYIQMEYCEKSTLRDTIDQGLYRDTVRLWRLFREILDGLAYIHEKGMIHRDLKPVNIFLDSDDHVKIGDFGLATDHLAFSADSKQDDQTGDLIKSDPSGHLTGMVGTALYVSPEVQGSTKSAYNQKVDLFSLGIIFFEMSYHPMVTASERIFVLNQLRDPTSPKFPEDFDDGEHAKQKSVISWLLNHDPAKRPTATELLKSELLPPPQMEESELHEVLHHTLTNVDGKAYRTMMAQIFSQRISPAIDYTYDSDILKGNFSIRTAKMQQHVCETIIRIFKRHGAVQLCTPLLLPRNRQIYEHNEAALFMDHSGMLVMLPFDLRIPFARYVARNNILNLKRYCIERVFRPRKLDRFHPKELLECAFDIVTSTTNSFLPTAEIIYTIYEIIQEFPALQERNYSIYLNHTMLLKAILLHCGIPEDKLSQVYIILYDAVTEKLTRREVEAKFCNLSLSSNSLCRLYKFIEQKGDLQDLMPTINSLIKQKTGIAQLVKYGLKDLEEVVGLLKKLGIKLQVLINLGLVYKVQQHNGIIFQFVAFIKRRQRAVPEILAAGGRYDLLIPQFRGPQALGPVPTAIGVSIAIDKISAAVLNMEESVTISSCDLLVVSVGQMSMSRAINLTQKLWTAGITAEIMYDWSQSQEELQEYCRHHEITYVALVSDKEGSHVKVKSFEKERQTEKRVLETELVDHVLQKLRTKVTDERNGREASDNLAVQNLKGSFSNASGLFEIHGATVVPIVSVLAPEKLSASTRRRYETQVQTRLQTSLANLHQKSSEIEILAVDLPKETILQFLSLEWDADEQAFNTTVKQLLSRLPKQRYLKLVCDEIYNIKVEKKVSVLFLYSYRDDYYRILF
Assay: Inhibition of GCN2 in human SK-OV-3 cells assessed as reduction in phosphorylation of eIF2alpha by cellular assay
Assay type: cell-based
endpoint-label: log10(IC50) (log10 of the value in nM)
log10 IC50, nM

Below, each entry is followed by its recorded log10(IC50) result.
COCCNC(=O)[C@@H]1CC[C@@H](Nc2ncc3c(Br)nn(-c4ccc5ncccc5c4)c3n2)C1; 1.30
CNC(=O)[C@]1(C)CC[C@@H](Nc2ncc3c(Br)nn(-c4ccc(-c5nnc(C)s5)c(CCN)c4)c3n2)C1; 2.38
COCCS(=O)(=O)N[C@@H]1CC[C@@H](Nc2ncc3c(Br)nn(-c4ccc5ncccc5c4)c3n2)C1 (relative stereo); 2.42
COCCNC(=O)[C@H]1CC[C@H](Nc2ncc3c(Br)nn(-c4ccc5ncccc5c4)c3n2)CC1; 2.80
Brc1nn(-c2ccc3ncccc3c2)c2nc(N[C@@H]3CC[C@@H](c4ncc[nH]4)C3)ncc12 (relative stereo); 2.74

Note: attention shifts to another entry.
Ask: Which log10(IC50) reading was recorded for the compound COCCNC(=O)[C@H]1C[C@H](Nc2ncc3c(Br)nn(-c4ccc5ncccc5c4)c3n2)C1 ?
Result: 1.93

// data source = ChEMBL document CHEMBL5108048
